Each entry below carries its reported residual activity.
target: NEK2 (human) (UniProt P51955); assay: radiometric filter-binding kinase assay, Kinase HotSpot; settings: compound 0.5 µM; ATP 10 µM
Sequence (P51955 whole entry, looked up): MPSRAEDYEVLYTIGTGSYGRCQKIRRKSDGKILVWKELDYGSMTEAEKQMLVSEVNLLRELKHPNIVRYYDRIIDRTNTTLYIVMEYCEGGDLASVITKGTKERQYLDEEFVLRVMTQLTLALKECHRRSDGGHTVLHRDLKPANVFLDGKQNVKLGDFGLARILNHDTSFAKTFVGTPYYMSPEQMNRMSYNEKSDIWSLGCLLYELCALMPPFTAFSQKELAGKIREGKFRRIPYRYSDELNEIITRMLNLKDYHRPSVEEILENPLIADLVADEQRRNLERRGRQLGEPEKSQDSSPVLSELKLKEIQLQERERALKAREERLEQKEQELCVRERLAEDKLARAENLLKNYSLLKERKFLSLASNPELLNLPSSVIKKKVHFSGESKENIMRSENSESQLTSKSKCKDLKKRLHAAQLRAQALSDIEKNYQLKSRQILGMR
ENDPOINT LABEL: residual activity (%)

1) CNC(=O)c1cc(Oc2ccc(NC(=O)Nc3ccc(Cl)c(C(F)(F)F)c3)cc2)ccn1 | 99.3
2) Oc1cccc(-c2nc(N3CCOCC3)c3oc4ncccc4c3n2)c1 | 88.6
3) N#C/C(=C(/N)Sc1ccc(N)cc1)c1ccccc1C(F)(F)F | 94.9
4) Cc1ccc(Nc2nccc(N(C)c3ccc4c(C)n(C)nc4c3)n2)cc1S(N)(=O)=O | 110
5) CCN(CC)C(=O)c1ccc(Nc2nc(OCC3CCCCC3)c3nc[nH]c3n2)cc1 | 91.4
6) COc1cc2ncnc(Nc3cccc(Cl)c3)c2cc1OC | 88.3
7) O=c1cc(N2CCOCC2)oc2c1ccc1ccccc12 | 94.8
8) CNc1cc2c(Nc3cccc(Br)c3)ncnc2cn1 | 88.3
9) O=C1NC(=O)/C(=C/c2ccc3c(c2)OC(F)(F)O3)S1 | 98.9
10) Cc1ccc(S(=O)(=O)/C=C/C#N)cc1 | 101
11) c1ccc(-c2n[nH]c3c2oc2ccccc23)cc1 | 99.8

----------
target: SYK (human); test: radiometric filter-binding kinase assay, Kinase HotSpot; conditions: compound 0.5 µM; ATP 10 µM
Below, each entry is listed alongside its reported residual activity.
ENDPOINT LABEL: residual activity (%)

1. CC(=O)c1ccc(N2CCOCC2)cc1O | 92.6
2. CC[n+]1c(/C=C/N(C)c2ccccc2)n(-c2ccccc2)c2ccc(-c3nc4ccccc4s3)cc21 | 104
3. Nc1ncnc2c1c(-c1ccc(Oc3ccccc3)cc1)cn2C1CCCC1 | 104
4. Nc1ncnc2[nH]nc(Nc3ccc(F)cc3)c12 | 97.4
5. CCN(CC)CCNC(=O)c1c(C)[nH]c(/C=C2\C(=O)Nc3ccc(Cl)cc32)c1C | 59.2
6. COc1ccc2c(c[n+](C)c3c4cc5c(cc4ccc23)OCO5)c1OC | 98.8
7. CC#CC(=O)Nc1cc2c(Nc3ccc(F)c(Cl)c3)ncnc2cn1 | 95.4
8. COc1ccc(COc2ccc(Cc3cnc(N)nc3N)cc2OC)cc1 | 89

----------
molecular target: CSNK2A1 (human); experiment: radiometric filter-binding kinase assay, Kinase HotSpot; details: compound 0.5 µM; ATP 10 µM
Below, each entry is listed alongside its reported residual activity.
ENDPOINT LABEL: residual activity (%)

1. Cc1ccc(S(=O)(=O)/C=C/C#N)cc1 | 94.3
2. Nc1ncnc2[nH]nc(Nc3ccc(F)cc3)c12 | 89.9
3. CNC(=O)c1cc(Oc2ccc(NC(=O)Nc3ccc(Cl)c(C(F)(F)F)c3)cc2)ccn1 | 108
4. O=C1NC(=O)C(c2cn(CCCn3ccnc3)c3ccccc23)=C1Nc1ccccc1 | 100
5. Nc1ccc2ncnc(NCCc3ccc(Oc4ccccc4)cc3)c2c1 | 95.2
6. N#C/C(=C(/N)Sc1ccc(N)cc1)c1ccccc1C(F)(F)F | 97.9
7. c1ccc(-c2n[nH]c3c2oc2ccccc23)cc1 | 87.2
8. O=S(=O)(c1cccc2cnccc12)N1CCCNCC1 | 94.9

----------
target: UniProt Q9Y243; assay: radiometric filter-binding kinase assay, Kinase HotSpot; conditions: compound 0.5 µM; ATP 10 µM
Sequence (Q9Y243 whole entry, looked up): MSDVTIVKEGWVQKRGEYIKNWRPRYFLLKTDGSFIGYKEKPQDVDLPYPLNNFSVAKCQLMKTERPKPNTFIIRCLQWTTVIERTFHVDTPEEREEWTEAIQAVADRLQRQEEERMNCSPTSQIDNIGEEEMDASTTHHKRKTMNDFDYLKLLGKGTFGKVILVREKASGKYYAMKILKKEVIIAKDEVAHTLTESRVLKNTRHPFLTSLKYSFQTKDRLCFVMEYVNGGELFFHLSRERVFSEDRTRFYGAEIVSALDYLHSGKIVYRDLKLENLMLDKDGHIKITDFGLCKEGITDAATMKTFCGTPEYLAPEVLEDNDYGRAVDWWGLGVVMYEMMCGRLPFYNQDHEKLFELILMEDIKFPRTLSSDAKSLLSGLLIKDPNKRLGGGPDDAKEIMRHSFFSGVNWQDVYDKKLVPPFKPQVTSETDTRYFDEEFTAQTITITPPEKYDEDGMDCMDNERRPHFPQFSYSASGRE
Classify by measured residual activity: Satisfied if it is equal to or exceeds 90%, Not satisfied if it is smaller.

1) Cc1ccc(Nc2nccc(N(C)c3ccc4c(C)n(C)nc4c3)n2)cc1S(N)(=O)=O | Satisfied
2) c1ccc(-c2n[nH]c3c2oc2ccccc23)cc1 | Not satisfied
3) O=C1Nc2ccc(Cl)cc2/C1=C/c1cc(Cl)c(O)c(Cl)c1 | Satisfied
4) CC(C)N(CCC(=O)c1ccc2ccccc2c1)Cc1ccccc1 | Satisfied
5) CCC(=O)Nc1ccc2ncnc(Nc3cccc(Br)c3)c2c1 | Satisfied
6) CCCC(=O)Oc1ccc2[nH]c(C(=O)c3cc4ccccc4[nH]3)cc2c1 | Satisfied
7) Nc1ncnc2[nH]nc(Nc3ccc(F)cc3)c12 | Satisfied
8) O=c1cc(N2CCOCC2)oc2c1ccc1ccccc12 | Satisfied
9) O=C1NC(=O)C(c2cn(CCCn3ccnc3)c3ccccc23)=C1Nc1ccccc1 | Not satisfied
10) CCN(CC)CCNC(=O)c1c(C)[nH]c(/C=C2\C(=O)Nc3ccc(F)cc32)c1C | Not satisfied

----------
biological target: JAK1 JH1 catalytic (human) (UniProt P23458); test: radiometric filter-binding kinase assay, Kinase HotSpot; settings: compound 0.5 µM; ATP 10 µM
Sequence (P23458 whole entry, looked up): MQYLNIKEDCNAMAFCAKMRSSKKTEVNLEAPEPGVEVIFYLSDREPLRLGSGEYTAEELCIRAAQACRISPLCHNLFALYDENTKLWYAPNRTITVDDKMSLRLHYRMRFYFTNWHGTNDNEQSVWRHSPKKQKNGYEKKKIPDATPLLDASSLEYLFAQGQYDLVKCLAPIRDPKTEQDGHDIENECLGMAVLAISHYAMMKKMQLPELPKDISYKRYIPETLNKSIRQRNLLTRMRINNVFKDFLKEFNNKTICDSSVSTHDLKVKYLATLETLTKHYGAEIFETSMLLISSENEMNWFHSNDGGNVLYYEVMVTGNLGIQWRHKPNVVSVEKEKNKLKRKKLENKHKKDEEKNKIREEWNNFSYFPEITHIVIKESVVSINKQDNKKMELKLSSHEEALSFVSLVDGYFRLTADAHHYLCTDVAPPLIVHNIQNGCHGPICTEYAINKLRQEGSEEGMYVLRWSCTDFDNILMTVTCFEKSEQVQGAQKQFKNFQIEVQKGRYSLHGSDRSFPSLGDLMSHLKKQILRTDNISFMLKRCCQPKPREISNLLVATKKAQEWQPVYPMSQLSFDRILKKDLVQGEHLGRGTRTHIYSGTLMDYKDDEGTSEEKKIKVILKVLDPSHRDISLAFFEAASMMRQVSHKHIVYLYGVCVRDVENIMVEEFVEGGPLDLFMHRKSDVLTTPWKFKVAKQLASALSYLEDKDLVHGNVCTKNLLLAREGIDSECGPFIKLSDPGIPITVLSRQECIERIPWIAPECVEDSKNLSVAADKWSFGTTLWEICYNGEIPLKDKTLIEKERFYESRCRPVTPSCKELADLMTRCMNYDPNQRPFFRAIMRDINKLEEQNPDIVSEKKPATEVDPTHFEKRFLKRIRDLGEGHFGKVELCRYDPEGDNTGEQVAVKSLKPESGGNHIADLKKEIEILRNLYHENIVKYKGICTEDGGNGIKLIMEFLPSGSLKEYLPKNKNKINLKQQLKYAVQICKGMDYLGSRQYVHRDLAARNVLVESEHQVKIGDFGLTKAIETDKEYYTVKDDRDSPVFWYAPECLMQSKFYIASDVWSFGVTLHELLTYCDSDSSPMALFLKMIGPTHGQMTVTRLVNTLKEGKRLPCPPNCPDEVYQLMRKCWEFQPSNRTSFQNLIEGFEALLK
ENDPOINT LABEL: residual activity (%)

1) O=C1NC(=O)c2c1c1c3ccccc3n3c1c1c2c2ccccc2n1C1CCC3O1 | 22.2
2) Oc1cccc(-c2nc(N3CCOCC3)c3oc4ncccc4c3n2)c1 | 104
3) CCC(=O)Nc1ccc2ncnc(Nc3cccc(Br)c3)c2c1 | 96.6
4) O=C1NC(=O)/C(=C/c2ccc3c(c2)OC(F)(F)O3)S1 | 104
5) O=C1NC(=O)C(c2cn(CCCn3ccnc3)c3ccccc23)=C1Nc1ccccc1 | 82.1
6) N#CC(C#N)=C(N)/C(C#N)=C/c1ccc(O)cc1 | 99.4
7) CO[C@H]1CC2CC[C@@H](C)[C@@](O)(O2)C(=O)C(=O)N2CCCC[C@H]2C(=O)OC([C@H](C)C[C@@H]2CC[C@@H](O)[C@H](OC)C2)CC(=O)[C@H](C)/C=C(\C)[C@@H](O)[C@@H](OC)C(=O)[C@H](C)C[C@H](C)/C=C/C=C/C=C/1C (stereo partly drawn) | 103
8) Cc1[nH]c(/C=C2\C(=O)Nc3ccc(S(=O)(=O)N(C)c4cccc(Cl)c4)cc32)c(C)c1C(=O)N1CCN(C)CC1 | 68

----------
Recorded residual activity for the following molecules
target: ROS1 (human); assay: radiometric filter-binding kinase assay, Kinase HotSpot; conditions: compound 0.5 µM; ATP 10 µM
ENDPOINT LABEL: residual activity (%)

1. O=C1Nc2ccc(Cl)cc2/C1=C/c1cc(Cl)c(O)c(Cl)c1 | 89.7
2. O=C1NC(=O)/C(=C/c2ccc3c(c2)OC(F)(F)O3)S1 | 88.5
3. O=C1NC(=O)c2c1c1c3ccccc3n3c1c1c2c2ccccc2n1C1CCC3O1 | 1.6
4. c1ccc(-c2n[nH]c3c2oc2ccccc23)cc1 | 107
5. CCN(CC)C(=O)c1ccc(Nc2nc(OCC3CCCCC3)c3nc[nH]c3n2)cc1 | 69.9
6. Cc1[nH]c(/C=C2\C(=O)Nc3ccc(S(=O)(=O)N(C)c4cccc(Cl)c4)cc32)c(C)c1C(=O)N1CCN(C)CC1 | 69.6
7. COc1ccc(COc2ccc(Cc3cnc(N)nc3N)cc2OC)cc1 | 99.9
8. COc1ccc2c(c[n+](C)c3c4cc5c(cc4ccc23)OCO5)c1OC | 119
9. N#C/C(=C(/N)Sc1ccc(N)cc1)c1ccccc1C(F)(F)F | 94.4
10. COc1cc2ncnc(Nc3cccc(Cl)c3)c2cc1OC | 91.2
11. CO[C@H]1CC2CC[C@@H](C)[C@@](O)(O2)C(=O)C(=O)N2CCCC[C@H]2C(=O)OC([C@H](C)C[C@@H]2CC[C@@H](O)[C@H](OC)C2)CC(=O)[C@H](C)/C=C(\C)[C@@H](O)[C@@H](OC)C(=O)[C@H](C)C[C@H](C)/C=C/C=C/C=C/1C (stereo not given in full) | 85
12. Nc1ncnc2[nH]nc(Nc3ccc(F)cc3)c12 | 99.9
13. O=C1NC(=O)C(c2cn(CCCn3ccnc3)c3ccccc23)=C1Nc1ccccc1 | 78.7
14. Nc1cccc(-c2cc3c(Oc4cccc(O)c4)ncnc3[nH]2)c1 | 39.7
15. CNC(=O)c1cc(Oc2ccc(NC(=O)Nc3ccc(Cl)c(C(F)(F)F)c3)cc2)ccn1 | 95.7
16. CC[n+]1c(/C=C/N(C)c2ccccc2)n(-c2ccccc2)c2ccc(-c3nc4ccccc4s3)cc21 | 99.1
17. O=S(=O)(c1cccc2cnccc12)N1CCCNCC1 | 101
18. Oc1cccc(-c2nc(N3CCOCC3)c3oc4ncccc4c3n2)c1 | 93.1
19. Cc1ccc(Nc2nccc(N(C)c3ccc4c(C)n(C)nc4c3)n2)cc1S(N)(=O)=O | 17
20. CCOC(=O)c1c(C)[nH]c(/C=C2\C(=O)Nc3ccccc32)c1C | 99.1

----------
Listed here: items and their measured residual activity.
target: EPHA2 (human) (UniProt P29317); experiment: radiometric filter-binding kinase assay, Kinase HotSpot; conditions: compound 0.5 µM; ATP 10 µM
Sequence (P29317 whole entry, looked up): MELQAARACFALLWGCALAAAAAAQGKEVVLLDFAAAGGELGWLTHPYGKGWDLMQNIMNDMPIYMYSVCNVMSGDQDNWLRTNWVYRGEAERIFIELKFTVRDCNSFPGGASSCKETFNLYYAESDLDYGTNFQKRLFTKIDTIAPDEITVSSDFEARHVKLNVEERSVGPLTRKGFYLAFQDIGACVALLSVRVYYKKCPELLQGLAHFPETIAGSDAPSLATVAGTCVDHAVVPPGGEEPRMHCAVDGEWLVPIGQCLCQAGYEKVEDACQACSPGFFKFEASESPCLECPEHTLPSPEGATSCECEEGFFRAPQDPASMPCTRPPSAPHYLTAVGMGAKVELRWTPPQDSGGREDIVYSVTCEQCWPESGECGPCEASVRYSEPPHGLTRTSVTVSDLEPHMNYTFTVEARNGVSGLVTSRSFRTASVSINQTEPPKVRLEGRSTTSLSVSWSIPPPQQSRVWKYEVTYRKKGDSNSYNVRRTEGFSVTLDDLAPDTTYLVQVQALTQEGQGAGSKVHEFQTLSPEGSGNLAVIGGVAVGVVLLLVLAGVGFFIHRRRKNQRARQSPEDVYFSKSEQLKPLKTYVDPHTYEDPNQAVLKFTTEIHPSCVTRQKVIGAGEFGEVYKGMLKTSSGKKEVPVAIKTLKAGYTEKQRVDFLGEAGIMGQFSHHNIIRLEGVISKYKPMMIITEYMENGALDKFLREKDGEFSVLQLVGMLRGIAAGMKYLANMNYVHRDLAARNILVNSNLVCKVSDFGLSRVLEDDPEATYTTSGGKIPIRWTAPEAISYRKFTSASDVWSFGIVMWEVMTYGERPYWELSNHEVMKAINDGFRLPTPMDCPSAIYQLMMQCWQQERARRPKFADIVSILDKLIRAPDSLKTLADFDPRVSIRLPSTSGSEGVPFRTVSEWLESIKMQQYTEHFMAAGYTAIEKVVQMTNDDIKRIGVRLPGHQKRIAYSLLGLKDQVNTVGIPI
ENDPOINT LABEL: residual activity (%)

1. Oc1cccc(-c2nc(N3CCOCC3)c3oc4ncccc4c3n2)c1 | 99.9
2. CCC(=O)Nc1ccc2ncnc(Nc3cccc(Br)c3)c2c1 | 101
3. c1ccc(-c2n[nH]c3c2oc2ccccc23)cc1 | 105
4. CNc1cc2c(Nc3cccc(Br)c3)ncnc2cn1 | 95.3
5. N#CC(C#N)=C(N)/C(C#N)=C/c1ccc(O)cc1 | 100
6. Nc1ccc2ncnc(NCCc3ccc(Oc4ccccc4)cc3)c2c1 | 103
7. O=S(=O)(c1cccc2cnccc12)N1CCCNCC1 | 102
8. N#C/C(=C(/N)Sc1ccc(N)cc1)c1ccccc1C(F)(F)F | 104
9. Cc1ccc(Nc2nccc(N(C)c3ccc4c(C)n(C)nc4c3)n2)cc1S(N)(=O)=O | 85.7
10. O=C1Nc2ccc(Cl)cc2/C1=C/c1cc(Cl)c(O)c(Cl)c1 | 95
11. Cc1ccc(S(=O)(=O)/C=C/C#N)cc1 | 105
12. Nc1cccc(-c2cc3c(Oc4cccc(O)c4)ncnc3[nH]2)c1 | 48.2
